Target: Lysine-specific demethylase 5B (Homo sapiens) (UniProt Q9UGL1)
Sequence (Q9UGL1 whole entry, looked up): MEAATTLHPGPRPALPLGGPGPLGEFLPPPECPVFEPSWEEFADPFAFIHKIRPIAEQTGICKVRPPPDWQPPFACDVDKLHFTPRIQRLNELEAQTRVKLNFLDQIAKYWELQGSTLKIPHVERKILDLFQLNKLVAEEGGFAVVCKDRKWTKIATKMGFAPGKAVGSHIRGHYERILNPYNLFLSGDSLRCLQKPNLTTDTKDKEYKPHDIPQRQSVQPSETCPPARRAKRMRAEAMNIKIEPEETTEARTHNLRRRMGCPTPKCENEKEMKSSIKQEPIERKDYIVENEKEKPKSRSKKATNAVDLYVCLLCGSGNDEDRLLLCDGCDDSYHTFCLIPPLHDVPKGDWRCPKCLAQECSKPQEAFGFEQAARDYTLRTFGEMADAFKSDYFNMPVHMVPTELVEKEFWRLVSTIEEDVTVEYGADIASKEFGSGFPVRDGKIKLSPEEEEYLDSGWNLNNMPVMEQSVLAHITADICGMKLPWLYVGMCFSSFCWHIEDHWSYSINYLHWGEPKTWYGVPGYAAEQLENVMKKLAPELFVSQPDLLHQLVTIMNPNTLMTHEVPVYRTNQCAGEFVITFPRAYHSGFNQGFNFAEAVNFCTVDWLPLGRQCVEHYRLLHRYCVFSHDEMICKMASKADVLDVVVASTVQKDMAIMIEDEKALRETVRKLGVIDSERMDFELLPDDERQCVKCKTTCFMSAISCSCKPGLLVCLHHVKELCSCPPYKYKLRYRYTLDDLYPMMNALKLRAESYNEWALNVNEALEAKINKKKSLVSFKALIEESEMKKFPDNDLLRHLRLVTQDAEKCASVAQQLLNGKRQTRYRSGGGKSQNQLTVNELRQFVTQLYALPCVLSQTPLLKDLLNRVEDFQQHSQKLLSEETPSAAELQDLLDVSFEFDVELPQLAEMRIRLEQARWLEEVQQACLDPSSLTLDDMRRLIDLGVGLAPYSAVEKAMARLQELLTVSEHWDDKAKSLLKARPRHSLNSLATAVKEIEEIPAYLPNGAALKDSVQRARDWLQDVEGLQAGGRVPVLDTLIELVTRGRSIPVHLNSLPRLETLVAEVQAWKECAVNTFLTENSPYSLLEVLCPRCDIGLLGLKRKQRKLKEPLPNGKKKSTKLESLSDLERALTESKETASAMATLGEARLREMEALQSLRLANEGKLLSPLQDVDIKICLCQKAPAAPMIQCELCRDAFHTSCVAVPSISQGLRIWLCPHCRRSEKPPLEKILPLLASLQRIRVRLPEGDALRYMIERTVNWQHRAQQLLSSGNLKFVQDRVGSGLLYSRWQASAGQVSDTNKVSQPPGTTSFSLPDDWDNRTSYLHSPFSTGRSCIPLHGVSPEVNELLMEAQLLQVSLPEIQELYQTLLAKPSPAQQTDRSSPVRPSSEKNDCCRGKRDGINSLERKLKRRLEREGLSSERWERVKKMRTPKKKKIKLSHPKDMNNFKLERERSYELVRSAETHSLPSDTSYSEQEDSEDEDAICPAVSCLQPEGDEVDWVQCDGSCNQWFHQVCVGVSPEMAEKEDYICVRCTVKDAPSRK
Assay: Primary screen for KDM5B Histone Demethylases FDH-coupled qHTS; note: nearly all actives have a fitted effect of over 70% in size
Details: FDH-coupled NADH fluorescence (FDH is formaldehyde dehydrogenase); series mostly up to 57.7 µM
From the text: Assay Submitter (PI): Qin Yan, Ph.D. (Yale University) and Xiaodong Cheng, Ph.D. (MD Anderson) This project was funded as part of the NCI NEXT Program and Chemical Biology Consortium (CBC) The histone demethylases, KDM5A and KDM5B catalyze the demethylation of lysine 4 on histone H3 (H3K4me3/2). They are overexpressed in a variety of cancers and have been implicated in cancer cell growth, metastasis, drug resistance, and tumor growth. […]
About 5,700 (2.6%) of roughly 220,000 compounds were called active. About 18% were inconclusive and are not listed. Calls come from the whole dose curve; as a rule, active = well fitted inhibition curve with a large enough effect; inconclusive = small, poorly fitted or top-dose-only effect; inactive = no such curve, though single readings can be large or run the other way. Many of the other results were omitted from the sample, so actives are more common in it than they were.
Classes used: Y for active, N for inactive

[
  {
    "compound": "O=C(NCc1ccc(Cl)nc1)c1cnn2ncccc12",
    "group": "Y"
  },
  {
    "compound": "O=S(=O)(Oc1ccccc1C(=S)N1CCOCC1)c1ccc(Cl)cc1",
    "group": "N"
  },
  {
    "compound": "O=C(c1ccco1)N1Cc2[nH]cnc2C[C@H]1c1nc(-c2ccncc2)no1",
    "group": "N"
  },
  {
    "compound": "O=C(NCc1ccc(Cl)nc1)c1cn2c(n1)CN(C(=O)c1cccnc1)CC2",
    "group": "N"
  },
  {
    "compound": "Cc1ccc(N2CCN(C(C(=O)O)c3c[nH]c4cc(NC(=O)C(C)C)ccc34)CC2)c(C)c1 (stereo not drawn)",
    "group": "N"
  },
  {
    "compound": "COc1ccc(C(C)=O)cc1CN1CCN(C/C=C/c2ccccc2)CC1",
    "group": "N"
  },
  {
    "compound": "CSc1ccc(-c2ccc(C=O)cc2)cc1",
    "group": "Y"
  },
  {
    "compound": "CSc1ncc(C(=O)Nc2ccc(Cl)cc2)c(C(F)(F)F)n1",
    "group": "N"
  },
  {
    "compound": "C=CCOC/C=C/C#CCN(CC=C)Cc1ccc(OC)cc1OC",
    "group": "N"
  },
  {
    "compound": "COCCNc1ncccc1-c1noc([C@@H]2CCCN2Cc2ccc3c(c2)OCO3)n1",
    "group": "Y"
  },
  {
    "compound": "O=C(NCc1ccc(Cl)nc1)c1ccn2cncc2c1",
    "group": "N"
  },
  {
    "compound": "O=C(NCc1ccc(Cl)cc1)c1cc(-c2ccc[nH]2)n[nH]1",
    "group": "N"
  },
  {
    "compound": "O=C(NCc1ccc(Cl)nc1)c1c[nH]c2cccnc12",
    "group": "N"
  },
  {
    "compound": "O=C(CSc1nccn1Cc1ccc(Cl)cc1)NCc1ccccc1",
    "group": "N"
  },
  {
    "compound": "Cc1cc(Br)ccc1NC(=O)CN(C)Cc1ncc(-c2ccc(F)cc2)o1",
    "group": "N"
  },
  {
    "compound": "COCCOc1ncccc1-c1noc([C@@H]2CCCN2CC(C)(C)C)n1",
    "group": "N"
  },
  {
    "compound": "Cc1oc(-c2cccs2)nc1CC(=O)N1CCCC1c1ccccc1 (stereo not drawn)",
    "group": "N"
  },
  {
    "compound": "CCc1nonc1NC(=O)COc1ccc(C)c(C)c1",
    "group": "N"
  },
  {
    "compound": "COc1ccc(OC2CN(Cc3cccn3C)C2)cc1",
    "group": "Y"
  },
  {
    "compound": "O=C(Nc1ccc2oc(=O)ccc2c1)c1cccc2ccccc12",
    "group": "N"
  },
  {
    "compound": "COCCOc1ccnc(-c2noc([C@@H]3CCCN3Cc3ccc(Cl)cc3)n2)c1",
    "group": "N"
  },
  {
    "compound": "Cc1ccc(C(=O)N2C[C@@H](COc3ccccc3)[C@H](C(N)=O)C2)cc1",
    "group": "N"
  },
  {
    "compound": "COc1ccc(C(=O)N[C@@H]2C[C@H](COc3cccc(C)n3)[C@@H](O)[C@H]2O)cc1",
    "group": "N"
  }
]
